Recorded values, source patent US20230235029A1.

What NT50 was measured for each of the following?
# tgt: T1, Marburg virus Angola GP on rVSV pseudotype (Marburg virus, Angola strain, UniProt Q1PD50 19-681)
# T1 sequence: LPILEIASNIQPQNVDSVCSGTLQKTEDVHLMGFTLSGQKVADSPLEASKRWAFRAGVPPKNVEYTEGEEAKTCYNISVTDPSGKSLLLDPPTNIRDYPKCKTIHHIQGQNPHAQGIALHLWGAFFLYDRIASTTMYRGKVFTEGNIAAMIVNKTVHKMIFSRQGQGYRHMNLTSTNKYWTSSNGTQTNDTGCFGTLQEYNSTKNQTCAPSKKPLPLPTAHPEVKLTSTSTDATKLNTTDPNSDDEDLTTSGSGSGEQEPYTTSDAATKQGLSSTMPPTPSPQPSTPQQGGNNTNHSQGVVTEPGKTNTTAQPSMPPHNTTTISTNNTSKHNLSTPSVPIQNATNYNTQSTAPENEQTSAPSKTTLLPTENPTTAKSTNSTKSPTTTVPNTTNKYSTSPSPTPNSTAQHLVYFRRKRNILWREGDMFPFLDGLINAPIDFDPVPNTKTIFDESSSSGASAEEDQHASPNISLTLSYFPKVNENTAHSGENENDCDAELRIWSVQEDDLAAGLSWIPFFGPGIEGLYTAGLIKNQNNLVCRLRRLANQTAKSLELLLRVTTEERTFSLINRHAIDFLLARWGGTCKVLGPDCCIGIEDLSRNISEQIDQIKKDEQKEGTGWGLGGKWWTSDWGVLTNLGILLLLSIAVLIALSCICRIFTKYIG
# assay-name: cell-based or functional assay
Value expressed in µg/mL; do not type the unit.

Task: Would you kindly share the measured NT50 for R64 (antibody, V domains shown) VH: QVQLQESGPGLVKPSETLSLTCAVSGASMSDYWWNWIRQPPGKGLEWIGEIYGYSGSSYYNPSLKSRVSISKDASKKQLSLKLSSVTAADTAVYYCARDPLNQDAFDFWGLGLRVTVSS VL: QSALTQPPSVSGSPGLSVTISCTGSGSDIGGYDYVSWYQQHPGKAPKLMIYGVNKRPSGVSDRFSGSKSGNTASLSISGLQAEDEADYYCSSYAGSHTLLFGGGSRLTVL ?
Output: 0.02

Task: Could you do the same for R39 (antibody, V domains shown) VH: EVQLVESGAGLVQPGGSLRLSCAGSGFTFSNTWMTWVRQAPGKGLEWVARIKRKADGETADYAASVKGRFTISRDDSKNTLYLQMNSLKTEDTAVYYCTTYNWNFNFDYWGQGVLVTVSS VL: DIQMTQSPSSLSASVGDRVTITCRASQDISPYLNWYQQKPGKAPKLLIYYGNRLESGVPSRFSGSGSGTDLTLTISSLQPEDFATYYCQQYYRLPLTFGGGTKVEIK , please?
Output: 0.03

Task: Could you do the same for R80 (antibody, V domains shown) VH: EVQLVESGGGLAKPGGSLRLSCAASGFTFNDYWLFWVRQAPGRGLEWISTINRPGSSTFYADSVKGRFTISRENANNALYLQMDSLRPEDTAVYYCARDQGRTVGYLDYWGQGVLVTVSS VL: QSALTQPRSVSGSPGQSVTISCTGTSSDIGSYSYVSWYQQHPGTAPKLIIYDDSERPSGVSDRFSGSKSGNTASLTISGLQAEDEADYYCSSYAGSNTWVFGGGTRLTVL , please?
Output: 0.26
